The entries below are paired with their reported mass density.
Assay: xn = mol fraction of the nth substance listed
Conditions: 318.15 K; 100.5 kPa; Liquid; x1 = 0.2
Express your answer in kg/m3, writing the number without its unit.

Record excerpt, results attached:
CCOC(=O)c1ccccc1O [ethyl 2-hydroxybenzoate] + CCO: 900.63
CCC(=O)OCc1ccccc1 [benzyl propanoate] + CCO: 867.25
CCOC(=O)CC(C)=O [ethyl 3-oxobutanoate] + CCO: 850.17
CC(=O)OCc1ccccc1 [benzyl ethanoate] + CCO: 869.66
CCOC(=O)CC(C)C [ethyl 3-methylbutanoate] + CCO: 794.81

Next item in the queue.
Entry under review: COC(=O)c1ccccc1 [methyl benzoate] + CCO . Reported mass density?
873.48

---

Test: xn = mol fraction of the nth substance listed
Settings: 298.15 K; 100.5 kPa; Liquid; x1 = 0.25
MEASURED_ENDPOINT: mass density (kg/m3)
Express your answer in kg/m3, writing the number without its unit.

Record excerpt, results attached:
CCOC(=O)CC(C)C [ethyl 3-methylbutanoate] + CCO: 818.9
CCC(=O)OCc1ccccc1 [benzyl propanoate] + CCO: 902.96
CCOC(=O)c1ccccc1O [ethyl 2-hydroxybenzoate] + CCO: 943.42

Entry under review: CC(=O)OCc1ccccc1 [benzyl ethanoate] + CCO . Reported mass density?
906.92

Next entry: CCOC(=O)CC(C)=O [ethyl 3-oxobutanoate] + CCO
885.63

Next entry: COC(=O)c1ccccc1 [methyl benzoate] + CCO
912.73

---

Experiment: xn = mol fraction of the nth substance listed
Details: 318.15 K; 100.5 kPa; Liquid; Capillary tube (Ostwald / Ubbelohde) method; x1 = 0.2
MEASURED_ENDPOINT: viscosity (mPa·s)
Express your answer in mPa·s, writing the number without its unit.

Record excerpt, results attached:
COC(=O)c1ccccc1 [methyl benzoate] + CCO: 0.797
CCOC(=O)CC(C)C [ethyl 3-methylbutanoate] + CCO: 0.618
CC(=O)OCc1ccccc1 [benzyl ethanoate] + CCO: 0.821
CCOC(=O)CC(C)=O [ethyl 3-oxobutanoate] + CCO: 0.712

Next item in the queue.
Entry under review: CCC(=O)OCc1ccccc1 [benzyl propanoate] + CCO . Reported viscosity?
0.848

---

Assay: xn = mol fraction of the nth substance listed
Conditions: 298.15 K; 100.5 kPa; Liquid; Capillary tube (Ostwald / Ubbelohde) method; x1 = 0.65
# label = True if viscosity >= 1 mPa·s else False

Evaluate CC(=O)OCc1ccccc1 [benzyl ethanoate] + CCO : viscosity at minimum 1 mPa·s?
True

---

Test: xn = mol fraction of the nth substance listed
Settings: 298.15 K; 100.5 kPa; Liquid; x1 = 0.5
# label = YES if mass density >= 1000 kg/m3 else NO

Completed entries (count: 3):
CCC(=O)OCc1ccccc1 [benzyl propanoate] + CCO: NO
CCOC(=O)c1ccccc1O [ethyl 2-hydroxybenzoate] + CCO: YES
CCOC(=O)CC(C)=O [ethyl 3-oxobutanoate] + CCO: NO

Alright, here's another compound for you.
Evaluate CCOC(=O)CC(C)C [ethyl 3-methylbutanoate] + CCO : mass density at minimum 1000 kg/m3?
NO

---

The entries below are paired with their reported mass density.
Assay: xn = mol fraction of the nth substance listed
Details: 298.15 K; 100.5 kPa; Liquid; x1 = 0.1
Express your answer in kg/m3, writing the number without its unit.

CCOC(=O)c1ccccc1O [ethyl 2-hydroxybenzoate] + CCO: 862
CC(=O)OCc1ccccc1 [benzyl ethanoate] + CCO: 843.91
COC(=O)c1ccccc1 [methyl benzoate] + CCO: 844.92

Entry under review: CCOC(=O)CC(C)C [ethyl 3-methylbutanoate] + CCO . Reported mass density?
801.39

Next entry: CCOC(=O)CC(C)=O [ethyl 3-oxobutanoate] + CCO
831.89

Next entry: CCC(=O)OCc1ccccc1 [benzyl propanoate] + CCO
843.5
